- test_system: hMPV A1 F monomer (human metapneumovirus)
- assay_method_text: ELISA on coated recombinant protein, OD 405 nm

binder: MPV487 (antibody, V domains shown) VH: EVQLLESGGGLVQPGRSLRLSCTASGFTFDDYAMHWVRQLPGKGLEWVSGISWNSDNIGYADSVKGRFTISRDNGKNSLYLQMNSLRAEDTAFYYCAKDVRIDYDLLIGHIDYWGPGTLVTVSS VL: TQSPVTLSLSPGERATLSCRASQSFGGYCAWYQQKPGQSPRLLIYDASNRATGVPARFSGSGSGTDFTLTISSLEPEDSAVYFCQQRGNWPIFGQGTRLEI
EC50, µg/mL: 0.13
//
binder: MPV454 (antibody, V domains shown) VH: EVQLVESGGGLVKPGGSLRLSCSTSGFVFSSYAMHWVRQAPGKGLEHVSAISSTGDNTHYADSVKGRFTISRDNSRGRLYLQMTSVRPEDAALYYCVKDLYSGRFYYFLDDWGQGTRIIVSS VL: DIQVTQSPSSLSASVGDRVTISCRASQNISNYLNWFQQRPGKAPKLLIYVASTLQSGAPSRFSGSGSGTDFTLTITDLQPEDFATYYCQQSYNTPPITFGQGTRLEIK
EC50, µg/mL: 0.052
//
binder: MPV477 (antibody, V domains shown) VH: EVQLVQSGAEVKKPGASVEVSCKTSGYTFTDYYLHWVRQAPGQGLEWMGWINPRSGGTKYGQKFQGRVTMTRDTSISTAYMDLRGLRSDDTAVYYCARAPLLTVYAVAHRSGENRFDPWGQGTVTVSS VL: QPPSLSGAPGQTVTISCTGSGSNIGAGYDVNWYQCLPGTAPKLLMFDNSNRPSGVPDRFSGSRSGASASLAITGLQAEDEADYYCQSYDSGLSGWVFGGGTKLTVL
EC50, µg/mL: 0.049
